target: IGF-1R (Homo sapiens); construct: purchased Upstate Co. 14-465; assay: IGF-1R inhibitory activity (kinase reaction, time-resolved fluoroimmunoassay); format: biochemical; settings: IGF-1R active recombinant enzyme, test compound 10 μmol/L
Sequence (P08069 959-1367 limits assumed): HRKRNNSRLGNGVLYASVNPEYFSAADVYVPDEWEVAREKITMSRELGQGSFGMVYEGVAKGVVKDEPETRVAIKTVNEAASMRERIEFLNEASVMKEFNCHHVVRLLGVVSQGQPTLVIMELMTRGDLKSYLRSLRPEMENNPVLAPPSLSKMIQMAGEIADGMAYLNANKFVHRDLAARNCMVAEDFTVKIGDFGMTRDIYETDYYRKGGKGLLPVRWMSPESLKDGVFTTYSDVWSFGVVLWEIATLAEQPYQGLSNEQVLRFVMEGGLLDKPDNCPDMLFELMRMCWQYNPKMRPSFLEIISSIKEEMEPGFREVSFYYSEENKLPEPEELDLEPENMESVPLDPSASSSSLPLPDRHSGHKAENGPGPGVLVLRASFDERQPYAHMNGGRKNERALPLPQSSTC
Counter-ions that a name gives are not always drawn.
MEASURED_PROPERTY: inhibition at 10 µM
Give me the value, and tack the unit on after it.

## Task Return value of inhibition at 10 µM for input O=C1C(Cl)=C(Cl)C(=O)N1c1ccccc1/C=C/c1n[nH]c2ccccc12 , no commentary.
## Result 98.1%

## Task Return value of inhibition at 10 µM for input Cc1ccsc1/C=N/c1ccccc1C=Cc1n[nH]c2ccccc12 , no commentary.
## Result 98.4%

## Task Return value of inhibition at 10 µM for input CNC1CCN(C(=O)c2ccc(/C=C/c3n[nH]c4ccccc34)c(NC(=O)c3sccc3C)c2)C1 (stereo not shown) , no commentary.
## Result 101%

## Task Return value of inhibition at 10 µM for input Nc1cccc(C(=O)Nc2ccccc2/C=C/c2n[nH]c3ccccc23)c1 , no commentary.
## Result 101%

## Task Return value of inhibition at 10 µM for input Cc1ccc2c(c1)C(=O)N(c1ccccc1/C=C/c1n[nH]c3ccccc13)C2=O , no commentary.
## Result 101%

## Task Return value of inhibition at 10 µM for input Cn1ccnc1C(=O)Nc1ccccc1/C=C/c1n[nH]c2ccccc12 , no commentary.
## Result 103%

## Task Return value of inhibition at 10 µM for input O=C(Nc1ccccc1/C=C/c1n[nH]c2ccccc12)c1cc2ccccc2[nH]1 , no commentary.
## Result 98.5%

## Task Return value of inhibition at 10 µM for input CN(C)c1ccc(C(=O)Nc2ccccc2/C=C/c2n[nH]c3ccccc23)cc1 , no commentary.
## Result 98.3%

## Task Return value of inhibition at 10 µM for input Cc1ccsc1C(=O)Nc1cc(CN2CCN(CCO)CC2)ccc1/C=C/c1n[nH]c2ccccc12 , no commentary.
## Result 101%

## Task Return value of inhibition at 10 µM for input CN1CCN(C(=O)c2ccc(/C=C/c3n[nH]c4ccccc34)c(N3C(=O)c4cccc(N)c4C3=O)c2)CC1 , no commentary.
## Result 106%

## Task Return value of inhibition at 10 µM for input CCN(CC)CCNC(=O)c1ccc(/C=C/c2n[nH]c3ccccc23)c(NC(=O)c2sccc2C)c1 [Compound 230, hydrochloride] , no commentary.
## Result 98.9%

## Task Return value of inhibition at 10 µM for input Cc1ccsc1C(=O)Nc1cc(CN2CCN(C=O)CC2)ccc1/C=C/c1n[nH]c2ccccc12 , no commentary.
## Result 100%

## Task Return value of inhibition at 10 µM for input O=C1c2ccccc2C(=O)N1c1ccc(F)cc1/C=C/c1n[nH]c2ccccc12 , no commentary.
## Result 98.9%

## Task Return value of inhibition at 10 µM for input Cc1ccsc1C(=O)Nc1cc(N2CCOCC2)ccc1/C=C/c1n[nH]c2ccccc12 [Compound 247, monohydrochloride] , no commentary.
## Result 102%

## Task Return value of inhibition at 10 µM for input OCc1nc(-c2ccccc2/C=C/c2n[nH]c3ccccc23)no1 , no commentary.
## Result 99.6%

## Task Return value of inhibition at 10 µM for input CN1CCN(C(=O)c2ccc(/C=C/c3n[nH]c4ccccc34)c(N3Cc4cccc(N)c4C3=O)c2)CC1 , no commentary.
## Result 103%
